The measurements presented in this section are drawn from PubChem BioAssay (NCI).

System: SK-MEL-2 melanoma
Run Description: NCI tumour cell line growth inhibition, 48 h
Measure Name: TGI

Enquiry: Look up TGI with SK-MEL-2 melanoma for this compound: O=C1CC(NC2CC(=O)c3c(Br)sc(Br)c32)c2c(Br)sc(Br)c21 (configuration not stated)
Return: 14.5 µM

Enquiry: Do the same for COC(=O)c1ccc(-n2c(C)nc(=O)c(-c3ccccc3)c2C)cc1 please
Return: > 100 µM

Enquiry: // query: [O-]/N=N\c1on[n+](CCc2ccccc2)c1Cc1c(/N=N/[O-])on[n+]1CCc1ccccc1
Return: 94 µM

Enquiry: Would you mind doing C=C1C(=O)O[C@H]2[C@H]1CC/C(COC(=O)c1cccc3ccccc13)=C\CC[C@@]1(C)O[C@@H]21 as well?
Return: 3.38 µM

Enquiry: Next up: N=C1/C(=C/c2ccccc2)C(=O)N=C2SC=NN12
Return: > 100 µM

Enquiry: Follow-up entry: O=c1c2cc(Br)ccc2[nH]c(=S)n1-c1ccccc1
Return: > 100 µM

Enquiry: Can you handle O=C(/C=C/c1cc(F)ccc1F)OCCc1ccccc1 next?
Return: > 100 µM

Enquiry: Item: COc1ccc2c(c1)CC[C@@H]1C2CC[C@]2(C)C(=O)N(CCN3CCCCC3)C(=O)CC12 (some centres not stated)
Return: > 100 µM

Enquiry: Now give it for CC1(C)C(=O)CCC(=O)C(C)(C)C2=CC=C(O2)C(C)(C)C(=O)CCC(=O)C(C)(C)C2=CC=C1O2 too.
Return: > 100 µM

Enquiry: Cc1cc(O)c2c(c1)C(=O)C=C(Br)C2=O , same question.
Return: 31.2 µM

Enquiry: Moving on to the next compound: COC(=O)CCN1CCN(CCO)CC1C (configuration not stated)
Return: > 10 µM

Enquiry: How about this compound: COC(=O)CSc1n[nH]c(-c2ccccc2)n1
Return: > 100 µM
